Test system: Anopheles stephensi
Experiment: Anopheles stephensi treated well plate contact test: knockdown and mortality
Type: in vivo
Conditions: Anopheles stephensi; test compound 0.02 ppm, without TFNA-AM, after 24 hours; read-out: mortality % 24, without TFNA-AM
mortality at 0.02 ppm for assorted molecules
Measured Endpoint: mortality at 0.02 ppm (%)

Molecule	System Name	Uom	Endpoint Result
Cc1c(COC(=O)[C@@H]2[C@H](/C=C(\Cl)C(F)(F)F)C2(C)C)cccc1-c1ccccc1 (racemic)	Anopheles stephensi	%	20
CCOc1ccc(C(C)(C)COCc2cccc(Oc3ccccc3)c2)cc1	Anopheles stephensi	%	0
CC1(C)C(C=C(Cl)Cl)C1C(=O)OC(C#N)c1cccc(Oc2ccccc2)c1 (stereo not shown)	Anopheles stephensi	%	0
N#Cc1nn(-c2c(Cl)cc(C(F)(F)F)cc2Cl)c(N)c1[S+]([O-])C(F)(F)F (stereo not shown)	Anopheles stephensi	%	0

* * *

Tested on: Anopheles stephensi
Experiment: Anopheles stephensi treated well plate contact test: knockdown and mortality
Type: in vivo
Details: Anopheles stephensi; test compound 0.2 ppm, without TFNA-AM, knockdown after 1 hour; read-out: Knock Down, without TFNA-AM
Measured Endpoint: pest or weed control at 0.2 ppm (%)

Compound	Uom	Endpoint Result
Cc1c(COC(=O)[C@@H]2[C@H](/C=C(\Cl)C(F)(F)F)C2(C)C)cccc1-c1ccccc1 (racemic)	%	20
CNC(=O)Oc1ccccc1OC(C)C	%	0
N#Cc1nn(-c2c(Cl)cc(C(F)(F)F)cc2Cl)c(N)c1[S+]([O-])C(F)(F)F (stereo not shown)	%	0
CO/C=C(/C(=O)OC)c1ccccc1Oc1cc(C(F)(F)F)ccn1	%	0
CO/C=C(/C(=O)OC)c1ccccc1Oc1nc(C(C)(C)C)ns1	%	20
Cc1ccc(/N=C/N(C)/C=N/c2ccc(C)cc2C)c(C)c1	%	0
CCOc1cc(C(C)(C)C)ccc1C1COC(c2c(F)cccc2F)=N1 (stereo not shown)	%	0
CC(c1ccc(C(F)(F)F)nc1)S(C)(=O)=NC#N (stereo not shown)	%	0
CC(C)N1C(=O)N(c2ccccc2)CS/C1=N\C(C)(C)C	%	0
CO/C=C(/C(=O)OC)c1ccccc1COc1cc(C(F)(F)F)nc(OC(C)C)n1	%	0
CCc1nn(C)c(C(=O)NCc2ccc(C(C)(C)C)cc2)c1Cl	%	0
CO/C=C(/C(=O)OC)c1ccccc1Oc1ncc(C(F)(F)F)s1	%	0
CNC(=O)Oc1cccc2c1OC(C)(C)O2	%	20
OC(c1ccc(Cl)cc1)(c1ccc(Cl)cc1)C(Cl)(Cl)Cl	%	0
C/C=C(\C)C(=O)O[C@H]1C[C@@H](OC(C)=O)[C@@]2(C(=O)OC)CO[C@H]3[C@@H](O)[C@@](C)([C@]45O[C@@]4(C)[C@H]4C[C@@H]5O[C@@H]5OC=C[C@@]54O)[C@H]4[C@]1(CO[C@]4(O)C(=O)OC)[C@@H]32	%	0
CN/C(=N\[N+](=O)[O-])NCc1cnc(Cl)s1	%	0
CCOc1ccc(C(C)(C)COCc2cccc(Oc3ccccc3)c2)cc1	%	0
Cc1cc(C(F)(C(F)(F)F)C(F)(F)F)ccc1NC(=O)c1cccc(I)c1C(=O)NC(C)(C)CS(C)(=O)=O [Flubendiamide]	%	0
CON=C(C(=O)OC)c1ccccc1CON=C(C)c1cccc(C(F)(F)F)c1	%	0
CCOC(=O)CC(SP(=S)(OC)OC)C(=O)OCC (stereo not shown)	%	20
O=[N+]([O-])NC1=NCCN1Cc1ccc(Cl)nc1	%	0
CC1(C)C(C=C(Cl)Cl)C1C(=O)OC(C#N)c1cccc(Oc2ccccc2)c1 (stereo not shown)	%	0
CN1COCN(Cc2cnc(Cl)s2)/C1=N\[N+](=O)[O-]	%	0
CN/C(=N/CC1CCOC1)N[N+](=O)[O-] (stereo not shown)	%	0
CCC(Nc1ncnc(C)c1Cl)c1ccc(OC(F)F)cc1 (stereo not shown)	%	0

The reported numbers originate from patent US20260206755A1.
